Assay system Focal adhesion kinase 1 (Homo sapiens, UniProt Q05397); read-out recorded as pIC50.
Hey, just a heads up that pIC50 is the negative log base 10 of the concentration in molar.

- compound: "COc1cc(Nc2ncc3ccn(-c4ccccn4)c3n2)cc(OC)c1OC"
  pIC50: 6.70

Pending compound:
Supply reported pIC50 belonging to this compound: COc1cc(Nc2ncc(Br)c(Nc3ccccn3)n2)cc(OC)c1OC
7.00
